Entries and their unfolding free energy values follow.
B1: Steroid Delta-isomerase, P07445 (parent)
chain: MNLPTAQEVQGLMARYIELVDVGDIEAIVQMYADDATVEDPFGQPPIHGREQIAAFYRQGLGGGKVRACLTGPVRASHNGCGAMPFRVEMVWNGQPCALDVIDVMRFDEHGRIQTMQAYWSEVNLSVREPQ

Variants of: B1
Settings: Pseudomonas putida; pH 7; 25 °C; Urea; CD; Sodium phosphate 25 mM; reversible: yes; structure 1OH0; whole UniProt chain shown
# unit: kcal/mol | format: bare number

See these solved cases before continuing.
> print(dat)
   mutant.code               property  units.of.measure  data.value
1        V101L  unfolding free energy          kcal/mol        20.5
2    Y32F Y57F  unfolding free energy          kcal/mol        24.3
3         Y32F  unfolding free energy          kcal/mol        24.3
4   Y32F V101L  unfolding free energy          kcal/mol        17.8
5   Y57F V101L  unfolding free energy          kcal/mol        16.4

Input line: // query unfolding free energy value for entry "Y16F"
Output line: 19.9

Input line: // query unfolding free energy value for entry "Y57F"
Output line: 20.8

This collection of values is drawn from FireProtDB (doi:10.1021/bi992119u).
